Data origin: PubChem BioAssay AID1963847

- Tested on: 415267-285-R-J2-PDC complex spheroid viability;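 further: luminescence used as stand-in measure of viable cells; spheroids exposed to compounds for one week before readout; 100% = DMSO vehicle control viability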
- assay-text: Anticancer human tumor 415267-285-R-J2-PDC patient-derived breast carcinoma cell line growth inhibition [POLQ]; active means viability on the fitted dose curve at most 10% of control; inactive means the rest
- assay-setup: second compound 3.16 µM; first compound 10 µM
Respond using exactly one of the listed classes: true (1) for active, false (0) for inactive

Ask: Hello, I am checking results. What call was entered for O=C(c1cc(Cc2n[nH]c(=O)c3ccccc23)ccc1F)N1CCN(C(=O)C2CC2)CC1 + Nc1ccc(C#CCN(C(=O)Cc2ncc(C(F)(F)F)cc2C(F)(F)F)c2ccc(F)cc2)nn1 ?
Reply: false (0)

Ask: Would you mind telling me which call this test gave O=c1[nH]cc(F)c(=O)[nH]1 + COC1C(OC(N)=O)C(O)C(Oc2ccc3c(O)c(NC(=O)c4ccc(O)c(CC=C(C)C)c4)c(=O)oc3c2C)OC1(C)C ?
Reply: false (0)

Ask: Fill in: this test's call for CC1COCCN1c1cc(-c2ccnn2C)c2ccnc(-c3ccn[nH]3)c2n1 (stereo unspecified) + Nc1ccc(C#CCN(C(=O)Cc2ncc(C(F)(F)F)cc2C(F)(F)F)c2ccc(F)cc2)nn1 is ___
Reply: true (1)

Ask: In this assay, the call recorded for Nc1ccn(C2OC(CO)C(O)C2(F)F)c(=O)n1 (stereo unspecified) + Cc1cccc(N(C)C(=O)C2C(O)CCN2c2nc(C)cc(C(F)(F)F)c2C#N)c1 was what?
Reply: true (1)

Ask: Call for entry COc1ccc([C@@H](O)c2cc(-c3ncnc4cc(N5CCOCC5)ccc34)c(F)cc2Cl)nn1 + COC1C(OC(N)=O)C(O)C(Oc2ccc3c(O)c(NC(=O)c4ccc(O)c(CC=C(C)C)c4)c(=O)oc3c2C)OC1(C)C :
Reply: false (0)

Ask: Could you please tell me the result logged for COc1ccc([C@@H](O)c2cc(-c3ncnc4cc(N5CCOCC5)ccc34)c(F)cc2Cl)nn1 + Nc1ccc(C#CCN(C(=O)Cc2ncc(C(F)(F)F)cc2C(F)(F)F)c2ccc(F)cc2)nn1 in this assay?
Reply: false (0)

Ask: Any idea what this test logged for C#Cc1c(F)ccc2cc(O)cc(-c3ncc4c(N5CC6CCC(C5)N6)nc(OCC56CCCN5CC(F)C6)nc4c3F)c12 (stereo unspecified) + COC1C(OC(N)=O)C(O)C(Oc2ccc3c(O)c(NC(=O)c4ccc(O)c(CC=C(C)C)c4)c(=O)oc3c2C)OC1(C)C ?
Reply: false (0)

Ask: Hi, sorry to bother you, what did the test record for CCc1cc2c(N3CCc4c(cc(Cn5ccnc5)cc4-c4cn(C)nc4C(F)(F)F)C3=O)ccnc2c(OC)n1 + Nc1ccc(C#CCN(C(=O)Cc2ncc(C(F)(F)F)cc2C(F)(F)F)c2ccc(F)cc2)nn1 ?
Reply: false (0)

Ask: Can you look up the reported call for O=c1[nH]cc(F)c(=O)[nH]1 + Nc1ccc(C#CCN(C(=O)Cc2ncc(C(F)(F)F)cc2C(F)(F)F)c2ccc(F)cc2)nn1 for me?
Reply: false (0)

Ask: For CC1COCCN1c1cc(-c2ccnn2C)c2ccnc(-c3ccn[nH]3)c2n1 (stereo unspecified) + Cc1cccc(N(C)C(=O)C2C(O)CCN2c2nc(C)cc(C(F)(F)F)c2C#N)c1 , what call appears in the results of this test?
Reply: true (1)

Ask: How was CNCc1ccc(-c2[nH]c3cc(F)cc4c3c2CCNC4=O)cc1 + Cc1cccc(N(C)C(=O)C2C(O)CCN2c2nc(C)cc(C(F)(F)F)c2C#N)c1 classified in this test?
Reply: false (0)

Ask: // outcome(item) with item = O=C(Nc1ccc(O)c(NS(=O)(=O)c2ccc(F)cc2)c1)c1ccc(-c2ccccc2)cc1 + COC1C(OC(N)=O)C(O)C(Oc2ccc3c(O)c(NC(=O)c4ccc(O)c(CC=C(C)C)c4)c(=O)oc3c2C)OC1(C)C
Reply: false (0)

Ask: How was CC(C)n1c(=O)n(C)c2cnc3cc(F)c(-c4ccc(OCCCN5CCCCC5)nc4)cc3c21 + COC1C(OC(N)=O)C(O)C(Oc2ccc3c(O)c(NC(=O)c4ccc(O)c(CC=C(C)C)c4)c(=O)oc3c2C)OC1(C)C classified in this test?
Reply: false (0)

Ask: Dear all, I need the recorded test outcome for CCc1cc2c(N3CCc4c(cc(Cn5ccnc5)cc4-c4cn(C)nc4C(F)(F)F)C3=O)ccnc2c(OC)n1 + COC1C(OC(N)=O)C(O)C(Oc2ccc3c(O)c(NC(=O)c4ccc(O)c(CC=C(C)C)c4)c(=O)oc3c2C)OC1(C)C , thank you.
Reply: false (0)

Ask: Answer briefly: the call reported for COc1cc(C2c3cc4c(cc3C(OC3OC5COC(C)OC5C(O)C3O)C3COC(=O)C23)OCO4)cc(OC)c1O (stereo unspecified) + COC1C(OC(N)=O)C(O)C(Oc2ccc3c(O)c(NC(=O)c4ccc(O)c(CC=C(C)C)c4)c(=O)oc3c2C)OC1(C)C in this assay.
Reply: true (1)

Ask: Called result for C=CC(=O)N1CCN(c2nc(=O)n(-c3c(C)ccnc3C(C)C)c3nc(-c4c(O)cccc4F)c(F)cc23)C(C)C1 (stereo unspecified) + Nc1ccc(C#CCN(C(=O)Cc2ncc(C(F)(F)F)cc2C(F)(F)F)c2ccc(F)cc2)nn1
Reply: false (0)

Ask: How did this test come out for COc1cc2cc(C(=O)CCC(=O)O)sc2cc1OC + Cc1cccc(N(C)C(=O)C2C(O)CCN2c2nc(C)cc(C(F)(F)F)c2C#N)c1 ?
Reply: false (0)

Ask: Check the results log: what was the call for CCCS(=O)(=O)Nc1ccc(F)c(C(=O)c2c[nH]c3ncc(-c4ccc(Cl)cc4)cc23)c1F + Cc1cccc(N(C)C(=O)C2C(O)CCN2c2nc(C)cc(C(F)(F)F)c2C#N)c1 ?
Reply: false (0)

Ask: GET /call?item= COc1cc2cc(C(=O)CCC(=O)O)sc2cc1OC + COC1C(OC(N)=O)C(O)C(Oc2ccc3c(O)c(NC(=O)c4ccc(O)c(CC=C(C)C)c4)c(=O)oc3c2C)OC1(C)C returns the recorded outcome of this test.
Reply: false (0)

Ask: Hi, do you know how CC1COCCN1c1cc(C2(S(C)(=N)=O)CC2)nc(-c2ccnc3[nH]ccc23)n1 (stereo unspecified) + Cc1cccc(N(C)C(=O)C2C(O)CCN2c2nc(C)cc(C(F)(F)F)c2C#N)c1 came out in this test?
Reply: true (1)

Ask: Record request — test call for O=C(c1cc(Cc2n[nH]c(=O)c3ccccc23)ccc1F)N1CCN(C(=O)C2CC2)CC1 + Cc1cccc(N(C)C(=O)C2C(O)CCN2c2nc(C)cc(C(F)(F)F)c2C#N)c1
Reply: false (0)
